target: ITK (Homo sapiens, UniProt Q08881); test: Inhibition of a panel of kinases, in vitro HotSpot kinase assay: ITK; type: biochemical; conditions: Table 15, C compounds; 1 μM ATP
Sequence (Q08881 whole entry): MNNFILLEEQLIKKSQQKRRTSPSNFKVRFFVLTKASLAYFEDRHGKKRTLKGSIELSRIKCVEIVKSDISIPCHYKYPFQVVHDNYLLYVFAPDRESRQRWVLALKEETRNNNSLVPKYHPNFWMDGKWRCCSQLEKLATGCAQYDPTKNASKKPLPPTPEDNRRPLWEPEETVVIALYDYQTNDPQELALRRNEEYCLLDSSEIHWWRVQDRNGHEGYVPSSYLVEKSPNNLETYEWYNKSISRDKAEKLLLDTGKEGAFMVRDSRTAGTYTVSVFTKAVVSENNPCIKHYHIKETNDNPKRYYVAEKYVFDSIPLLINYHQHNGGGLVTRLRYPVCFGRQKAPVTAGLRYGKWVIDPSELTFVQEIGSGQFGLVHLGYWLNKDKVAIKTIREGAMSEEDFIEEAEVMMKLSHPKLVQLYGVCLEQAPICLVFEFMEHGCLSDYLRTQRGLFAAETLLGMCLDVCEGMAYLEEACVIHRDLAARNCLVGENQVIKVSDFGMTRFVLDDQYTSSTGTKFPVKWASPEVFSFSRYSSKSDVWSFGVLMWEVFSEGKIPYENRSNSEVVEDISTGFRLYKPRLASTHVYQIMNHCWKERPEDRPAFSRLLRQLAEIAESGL
pIC50: −log10 of the molar value.
RECORDED METRIC: pIC50

Check out these entries, answers already filled in.
C=CC(=O)N1CCC[C@@H](N(C(=O)C=C)c2nnc(C(N)=O)c(Nc3ccc(C4(C#N)CC4)cc3)n2)C1    6.00 to 7.00
CN(c1cnc(C(N)=O)c(Nc2ccc(C3(C)CCN(C4CCCC4)CC3)cc2)n1)[C@@H]1CCN(C(=O)C(F)(F)F)C1    ≥ 8.00

For the next question, use this molecule.
Prompt: // pIC50 lookup, key: C=CC(=O)N1CCC[C@@H](Nc2nnc(C(N)=O)c(Nc3ccc(-c4cnn(C(=O)C=C)c4)cc3)n2)C1
Response: 7.00 to 8.00

---

molecular target: LCK (Homo sapiens, UniProt P06239); experiment: Inhibition of a panel of kinases, in vitro HotSpot kinase assay: LCK; format: biochemical; conditions: D-compounds panel data; 1 μM ATP; read-out: IC50 LCK
Sequence (P06239 whole entry): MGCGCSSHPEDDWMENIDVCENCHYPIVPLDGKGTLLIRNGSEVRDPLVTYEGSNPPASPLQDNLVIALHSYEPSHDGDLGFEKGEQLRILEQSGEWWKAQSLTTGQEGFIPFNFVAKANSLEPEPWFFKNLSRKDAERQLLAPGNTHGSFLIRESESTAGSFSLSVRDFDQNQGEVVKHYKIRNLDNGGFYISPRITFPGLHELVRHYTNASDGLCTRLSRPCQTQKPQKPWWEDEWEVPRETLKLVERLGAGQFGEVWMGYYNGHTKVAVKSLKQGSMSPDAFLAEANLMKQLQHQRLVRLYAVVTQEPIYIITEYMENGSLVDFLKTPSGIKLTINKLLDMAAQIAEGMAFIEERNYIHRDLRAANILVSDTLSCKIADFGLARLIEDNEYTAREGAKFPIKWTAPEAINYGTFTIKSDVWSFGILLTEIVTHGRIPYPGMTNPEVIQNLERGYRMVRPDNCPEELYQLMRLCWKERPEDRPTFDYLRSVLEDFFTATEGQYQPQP
pIC50: −log10 of the molar value.
Quick list: pIC50 per entry.

Below: 5 molecules and their reported pIC50.
Cc1cc(Nc2nc(N3CCC[C@@H](n4ccc5cc(C6CC6)ccc5c4=O)C3)cnc2C(N)=O)sn1    < 5.00
C[C@@H]1[C@H](NC(=O)c2ccc(C(C)(C)C#N)cc2)CCCN1c1cnc(C(N)=O)c(Nc2ccc(OC3CCN(C)CC3)cc2)n1    7.00 to 8.00
C[C@@H]1[C@H](NC(=O)c2ccc(C(F)(F)F)cn2)CCCN1c1cnc(C(N)=O)c(Nc2cnn(C)c2)n1    6.00 to 7.00
CCOCCOc1ccc(Nc2nc(N3CCC[C@@H](NC(=O)c4ccc(C5CC5)cc4)[C@H]3C)cnc2C(N)=O)cc1    < 5.00
C[C@@H]1[C@H](NC(=O)c2ccc(C3CC3)cc2)CCCN1c1cnc(C(N)=O)c(Nc2cc(CN3CCCCC3)ns2)n1    7.00 to 8.00

Prompt: Report pIC50 for C[C@@H]1[C@H](NC(=O)N(C)C)CCCN1c1cnc(C(N)=O)c(Nc2cn[nH]c2)n1 please.
Response: 6.00 to 7.00

Prompt: One more molecule: C[C@@H]1[C@H](NC(=O)c2ccc(C3CC3)cc2)CCCN1c1cnc(C(N)=O)c(Nc2ccc(OC(F)(F)F)cc2)n1
Response: < 5.00

---

molecular target: BTK-WT (Homo sapiens); construct: purified from insect cells as a full-length construct containing an N-terminal 6X-His tag; His6 (N); made in house; host or cells: insect cells (baculovirus Sf21 in Method B); assay: Btk in vitro inhibitory activity (one of Method A TR-FRET, Method B electrophoretic mobility shift, Method C radiometric filter binding); assay type: biochemical; details: Table 12, Formula C-I; read-out: BTK-WT (IC50)
Sequence (Q06187 whole entry): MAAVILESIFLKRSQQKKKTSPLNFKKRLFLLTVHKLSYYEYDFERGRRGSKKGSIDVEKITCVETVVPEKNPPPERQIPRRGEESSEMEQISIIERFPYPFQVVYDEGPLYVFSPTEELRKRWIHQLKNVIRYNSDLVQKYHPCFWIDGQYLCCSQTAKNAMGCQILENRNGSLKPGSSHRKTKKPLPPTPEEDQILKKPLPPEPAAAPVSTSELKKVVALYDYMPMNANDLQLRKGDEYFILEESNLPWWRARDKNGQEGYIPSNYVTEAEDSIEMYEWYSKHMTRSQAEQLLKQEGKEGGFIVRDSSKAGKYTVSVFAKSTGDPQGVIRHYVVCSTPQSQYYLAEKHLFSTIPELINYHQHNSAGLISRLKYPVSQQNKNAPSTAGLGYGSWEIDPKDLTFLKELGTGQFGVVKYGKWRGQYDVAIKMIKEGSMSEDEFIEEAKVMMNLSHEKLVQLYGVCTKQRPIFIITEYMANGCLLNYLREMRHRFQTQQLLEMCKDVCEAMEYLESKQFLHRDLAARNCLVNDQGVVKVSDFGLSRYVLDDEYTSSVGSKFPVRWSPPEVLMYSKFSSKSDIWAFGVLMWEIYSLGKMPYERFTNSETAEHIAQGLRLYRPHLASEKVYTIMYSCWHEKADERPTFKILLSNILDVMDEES
Where a name gives a salt, the structure may show the parent alone.
Catalogue of IC50 readings, one per entry.

These solved cases illustrate the format of a correct answer.
C=CC(=O)N1CC[C@@H](Nc2nnc(C(N)=O)c(Nc3ccc(C(C)C)cc3)n2)C1    ≤ 0.1 µM
Cc1cc(Nc2nc(N(C)CC3CCN(C(=O)c4ccc(N(C)C)cc4)CC3)cnc2C(N)=O)sn1    0.1 to 1 µM
Cc1cc(Nc2nc(N[C@@H]3CCN(C(=O)c4ccc(N(C)C)cc4)C3)cnc2C(N)=O)sn1    ≤ 0.1 µM
C=CC(=O)N1CCC[C@H](Nc2nnc(C(N)=O)c(Nc3ccc(C(C)C)cc3)n2)C1    ≤ 0.1 µM
Cc1cc(Nc2nc(N[C@@H]3CCCNC3)cnc2C(N)=O)sn1    ≤ 0.1 µM

Prompt: Entry under review: Cc1cc(Nc2nc(N[C@@H]3CCCN(C(=O)c4ccc(N(C)C)cc4)C3)cnc2C(N)=O)sn1 [Example C-7, hydrochloride] . Reported IC50?
Response: > 10 µM

Prompt: Next molecule up: Cc1cc(Nc2nc(N[C@@H]3CCN(C(=O)c4ccccc4)C3)cnc2C(N)=O)sn1 [Example C-11, hydrochloride]
Response: ≤ 0.1 µM

Prompt: Can you check C=CC(=O)N1CCC(CN(C)c2cnc(C(N)=O)c(Nc3ccc(C(C)C)cc3)n2)CC1 next?
Response: ≤ 0.1 µM

Prompt: Please do the same for C=CC(=O)NCC(=O)N1CCC[C@H](Nc2nnc(C(N)=O)c(Nc3ccc(C(C)C)cc3)n2)C1 as well.
Response: 0.1 to 1 µM

---

Molecular target: TEC (Homo sapiens)
Sequence (P42680 1-631): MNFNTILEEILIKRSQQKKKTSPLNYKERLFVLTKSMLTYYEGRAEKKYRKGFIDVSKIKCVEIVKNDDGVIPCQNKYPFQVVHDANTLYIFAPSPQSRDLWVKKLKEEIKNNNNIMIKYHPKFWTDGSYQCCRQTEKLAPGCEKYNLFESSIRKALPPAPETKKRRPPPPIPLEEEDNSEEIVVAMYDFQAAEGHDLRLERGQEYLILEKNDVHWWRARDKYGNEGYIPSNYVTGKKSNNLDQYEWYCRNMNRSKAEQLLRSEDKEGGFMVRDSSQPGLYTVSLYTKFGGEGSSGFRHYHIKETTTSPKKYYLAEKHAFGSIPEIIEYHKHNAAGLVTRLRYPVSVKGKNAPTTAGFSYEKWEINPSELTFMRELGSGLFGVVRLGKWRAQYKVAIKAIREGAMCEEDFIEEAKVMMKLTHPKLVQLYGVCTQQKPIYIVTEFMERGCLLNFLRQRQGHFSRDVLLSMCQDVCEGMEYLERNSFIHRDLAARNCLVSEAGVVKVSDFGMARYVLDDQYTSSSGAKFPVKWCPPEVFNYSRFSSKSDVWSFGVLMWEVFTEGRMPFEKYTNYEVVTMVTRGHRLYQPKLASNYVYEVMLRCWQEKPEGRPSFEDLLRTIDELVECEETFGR
Assay: Inhibition of a panel of kinases, in vitro HotSpot kinase assay: TEC
Format: biochemical
Conditions: D-compounds panel data; 1 μM ATP
pIC50: −log10 of the molar value.
RECORDED METRIC: pIC50

Example results:
CC(C)c1ccc(C(=O)N[C@@H]2CCCN(c3cnc(C(N)=O)c(Nc4cnn(C)c4)n3)[C@@H]2C)cc1    7.00 to 8.00
Cc1nc2cc(C(=O)N[C@@H]3CCCN(c4cnc(C(N)=O)c(Nc5cnn(C)c5)n4)[C@@H]3C)ccc2s1    ≥ 8.00
C[C@@H]1[C@H](NC(=O)c2ccc(C3CC3)c(Cl)c2)CCCN1c1cnc(C(N)=O)c(Nc2ccc(N3CCN(C)CC3)cc2)n1    6.00 to 7.00
C[C@H]1C[C@@H](NC(=O)c2ccc(C3CC3)cc2)CN(c2cnc(C(N)=O)c(Nc3cnn(C)c3)n2)C1    7.00 to 8.00
C[C@@H]1[C@H](NC(=O)N(C)C)CCCN1c1cnc(C(N)=O)c(Nc2ccc(N3CCN(C)CC3)cc2)n1    6.00 to 7.00

Prompt: Need pIC50 of C[C@@H]1[C@H](NC(=O)c2ccc(C3CC3)cc2)CCCN1c1cnc(C(N)=O)c(Nc2ccc(C3CCN(C)CC3)cc2)n1 , thanks.
Response: 7.00 to 8.00

Prompt: // query: C[C@@H]1[C@H](NC(=O)c2cc(C3CC3)n(C)n2)CCCN1c1cnc(C(N)=O)c(Nc2cnn(C)c2)n1
Response: ≥ 8.00

Prompt: Repeat with C[C@@H]1[C@H](NC(=O)c2cc(C3CC3)n[nH]2)CCCN1c1cnc(C(N)=O)c(Nc2cnn(C)c2)n1
Response: ≥ 8.00

Prompt: Also need Cn1cc(Nc2nc(N3CCC[C@@H](NC(=O)c4ccc(C5CC5)cc4)C3)cnc2C(N)=O)cn1 , thanks.
Response: 6.00 to 7.00

Prompt: Now consider Cc1cc(Nc2nc(N3CCC[C@@H](NC(=O)c4ccc(C(C)(C)O)cc4)C3)cnc2C(N)=O)sn1 .
Response: 7.00 to 8.00

Prompt: Same for Cn1cc(Nc2nc(N3CCC[C@@H](n4ccc5cc(C6CC6)ccc5c4=O)C3)cnc2C(N)=O)cn1
Response: 7.00 to 8.00

Prompt: Now give it for C[C@@H]1[C@H](NC(=O)c2ccc(C3CC3)cc2)CCCN1c1cnc(C(N)=O)c(Nc2ccc(N3CCN(C)CC3)c(C(F)(F)F)c2)n1 too.
Response: 7.00 to 8.00

Prompt: Now the same for C[C@@H]1[C@H](NC(=O)N(C)C2CC2)CCCN1c1cnc(C(N)=O)c(Nc2cnn(C)c2)n1
Response: 7.00 to 8.00

Prompt: And then C[C@@H]1[C@H](NC(=O)c2ccc(C(F)(F)F)cc2)CCCN1c1cnc(C(N)=O)c(Nc2ccc(N3CCN(C)CC3)cc2)n1 , what is it?
Response: 7.00 to 8.00

---

target: TEC (Homo sapiens); assay: Inhibition of a panel of kinases, in vitro HotSpot kinase assay: TEC; type: biochemical; details: D-compounds panel data; 1 μM ATP
pIC50: −log10 of the molar value.
RECORDED METRIC: pIC50

Some compounds with recorded pIC50:
C[C@@H]1[C@H](NC(=O)c2ccc(C3CC3)cc2)CCCN1c1cnc(C(N)=O)c(Nc2ccc(OC3CCN(CC(F)(F)F)CC3)cc2)n1    6.00 to 7.00
C[C@@H]1[C@H](NC(=O)c2ccc(C3CC3)cc2)CCCN1c1cnc(C(N)=O)c(Nc2ccc(N3CCN(C)CC3)c(F)c2)n1    7.00 to 8.00
Cn1cc(Nc2nc(N3C4CCC(NC(=O)c5ccc(C6CC6)cc5)C3CC4)cnc2C(N)=O)cn1 (single isomer, unassigned) [Example D-201]    ≥ 8.00
Cc1cc(Nc2nc(N3CCC[C@@H](NC(=O)N4Cc5ccccc5C4=O)C3)cnc2C(N)=O)sn1    7.00 to 8.00

Prompt: Which pIC50 is reported for this compound? Cc1cc(Nc2nc(N3C[C@H](NC(=O)c4ccc(C5CC5)cc4F)CC[C@@H]3C)cnc2C(N)=O)sn1
Response: 7.00 to 8.00

Prompt: Now consider C[C@@H]1[C@H](NC(=O)c2ccc3c(c2)OC(F)(F)O3)CCCN1c1cnc(C(N)=O)c(Nc2cnn(C)c2)n1 .
Response: ≥ 8.00
